Ref: ChEMBL document CHEMBL1138498

Test: Plasma clearance in rat
Type: ADME, organism-based
metric: clearance (mL/min/kg)
Report the figure in mL/min/kg without appending any unit label.

## Task Return clearance (reported value) for this compound: Cc1cc(F)ccc1[C@H]1CNCCN1C(=O)N(C)[C@H](C)c1cc(C(F)(F)F)cc(C(F)(F)F)c1 [VESTIPITANT]
## Result 19

---

Experiment: Bioavailability in dog
Format: ADME, organism-based, Canis lupus familiaris
Conditions: in vivo
metric: bioavailability (%)
Report the figure in % without appending any unit label.

## Task Return bioavailability (reported value) for this compound: "Cc1cc(F)ccc1[C@H]1CNCCN1C(=O)N(C)[C@H](C)c1cc(C(F)(F)F)cc(C(F)(F)F)c1"
## Result 71
